Biological target: T1, murine CD22 protein (ACROBiosystems, SI2-M52Ha) (murine, UniProt P35329 22-708)
T1 construct: extracellular domain; also called murine CD22-ECD; murine CD22-ECD-His
T1 sequence (looked up): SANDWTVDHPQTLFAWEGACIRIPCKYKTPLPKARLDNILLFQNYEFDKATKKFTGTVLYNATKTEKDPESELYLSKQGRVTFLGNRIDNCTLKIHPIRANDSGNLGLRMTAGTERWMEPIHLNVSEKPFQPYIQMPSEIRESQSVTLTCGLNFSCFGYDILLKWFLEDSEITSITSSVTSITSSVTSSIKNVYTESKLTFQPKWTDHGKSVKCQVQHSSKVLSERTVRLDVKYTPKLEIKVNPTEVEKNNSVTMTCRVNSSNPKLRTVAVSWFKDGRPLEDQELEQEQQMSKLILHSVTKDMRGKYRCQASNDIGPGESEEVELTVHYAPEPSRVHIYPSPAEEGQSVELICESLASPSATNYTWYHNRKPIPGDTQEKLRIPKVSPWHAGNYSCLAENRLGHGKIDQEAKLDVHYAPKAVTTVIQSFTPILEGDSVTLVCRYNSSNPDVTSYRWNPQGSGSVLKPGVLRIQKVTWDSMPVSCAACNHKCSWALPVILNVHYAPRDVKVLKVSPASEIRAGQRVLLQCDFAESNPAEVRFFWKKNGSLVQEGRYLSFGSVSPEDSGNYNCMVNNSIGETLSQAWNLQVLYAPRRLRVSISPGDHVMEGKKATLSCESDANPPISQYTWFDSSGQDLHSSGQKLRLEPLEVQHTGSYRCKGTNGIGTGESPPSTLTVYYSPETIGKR
Assay: ELISA, coated murine CD22, 10 nM Ab
MEASURE: OD450 (OD450)
I only need the number, in OD450, no unit after it.

F1.280.1 human-murine chimeric antibody (antibody, human IgG1, kappa, V domains shown, Chimeric, human IgG1 / kappa) VH: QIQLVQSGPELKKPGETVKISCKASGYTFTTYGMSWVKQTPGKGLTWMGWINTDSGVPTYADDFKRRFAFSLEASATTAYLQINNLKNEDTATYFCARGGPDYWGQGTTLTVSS VL: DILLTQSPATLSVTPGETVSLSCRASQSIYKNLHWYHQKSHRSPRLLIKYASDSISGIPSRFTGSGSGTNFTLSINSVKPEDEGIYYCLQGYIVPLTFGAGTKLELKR : 0.07

Please examine the following record next.
QUERY: Item under review: F1.105.11 human-murine chimeric antibody (antibody, human IgG1, kappa, V domains shown, Chimeric, human IgG1 / kappa; VL tied by name) VH: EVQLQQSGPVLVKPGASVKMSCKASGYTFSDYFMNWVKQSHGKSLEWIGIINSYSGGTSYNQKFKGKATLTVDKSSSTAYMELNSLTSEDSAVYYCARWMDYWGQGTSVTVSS VL: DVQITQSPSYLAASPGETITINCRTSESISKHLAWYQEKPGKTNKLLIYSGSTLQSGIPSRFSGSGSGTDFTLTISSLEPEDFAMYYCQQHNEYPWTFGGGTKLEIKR . Reported OD450?
RESULT: 0.05

Where these numbers come from: patent US20240084003A1
